Biological target: human IL-1β (human) (UniProt P01584)
Sequence (P01584 117-269 limits assumed): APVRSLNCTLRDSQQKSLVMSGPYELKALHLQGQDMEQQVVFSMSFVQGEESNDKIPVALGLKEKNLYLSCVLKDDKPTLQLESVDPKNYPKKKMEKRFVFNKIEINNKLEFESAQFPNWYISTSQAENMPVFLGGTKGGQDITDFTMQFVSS
Assay: cell-based or functional assay
Assignment: determine reported Estimated EC50, IL-1β neutralization (MRC-5) for the given binders.
The reply should be a number in nM, with the unit left off.

Specify Estimated EC50, IL-1β neutralization (MRC-5) for ABT2-108-538x/ABT1-207 scFc (Fc fusion, part only; not given: Domain junction linker and Fc, not shown: a dimerising Fc or GST) chain, part: EVQLLESGGGLVQPGGSLRLSCAASGFTFADEGMMWVRQAPGKGLEWVSRITYSGKNTYYADSVKGRFTISRDNSKNTLYLQMNSLRAEDTAVYYCAKYTGRILGHHLFDYWGQGTLVTVSSEVQLLESGGGLIQPGGSLRLSCAASGFTFGRYYMSWVRQAPGKGLEWVSSIDYLGTNTYYADSVKGRFTISRDNSKNTLYLQMNSLRAEDTAVYYCAKLTRIRPPNFDYWGQGTLVTVSSGGGGSGGGGSGGGGS and stop. 0.002

Supply reported Estimated EC50, IL-1β neutralization (MRC-5) belonging to this binder: ABT1-98/ABT2-108-538x scFc (Fc fusion, part only; not given: Domain junction linker and Fc, not shown: a dimerising Fc or GST) chain, part: EVQLLESGGGLVQPGGSLRLSCAASGFTFDGYIMSWVRQAPGKGLEWVSTISPLGSVTYYADSVKGRFTISRDNSKNTLYLQMNSLRAEDTAVYYCAKKGPWFDYWGQGTLVTVSSEVQLLESGGGLVQPGGSLRLSCAASGFTFADEGMMWVRQAPGKGLEWVSRITYSGKNTYYADSVKGRFTISRDNSKNTLYLQMNSLRAEDTAVYYCAKYTGRILGHHLFDYWGQGTLVTVSSGGGGSGGGGSGGGGS 1.3

Report Estimated EC50, IL-1β neutralization (MRC-5), nothing else, for this binder: ABT1-207/ABT2-108-538x scFc (Fc fusion, part only; not given: Domain junction linker and Fc, not shown: a dimerising Fc or GST) chain, part: EVQLLESGGGLIQPGGSLRLSCAASGFTFGRYYMSWVRQAPGKGLEWVSSIDYLGTNTYYADSVKGRFTISRDNSKNTLYLQMNSLRAEDTAVYYCAKLTRIRPPNFDYWGQGTLVTVSSEVQLLESGGGLVQPGGSLRLSCAASGFTFADEGMMWVRQAPGKGLEWVSRITYSGKNTYYADSVKGRFTISRDNSKNTLYLQMNSLRAEDTAVYYCAKYTGRILGHHLFDYWGQGTLVTVSSGGGGSGGGGSGGGGS 1.1
